Here, each record is paired with measured TGI data.
Test system: A549 NSCLC
test-details: NCI tumour cell line growth inhibition, 48 h

Reference set (5 entries):
molecule	target-or-system	TGI
CC(=Nc1ccncc1)C(C)=Nc1ccncc1	A549 NSCLC	> 100 µM
O=C1CCC(O)=C1O	A549 NSCLC	> 100 µM
CC(C)CNC(=O)Cn1c(-c2ccccc2)cc2ccccc21	A549 NSCLC	> 100 µM
COc1ccc(Cl)cc1Nc1nc(C(F)(F)F)ccc1C(=O)N/N=C/c1cc(OC)c(OC)c(OC)c1	A549 NSCLC	6.64 µM
COc1ccc2nc3cc(Cl)ccc3c(NCCNCCCNC(=O)c3cc(-c4ccccc4)nc4ccccc34)c2c1	A549 NSCLC	> 100 µM

# ---- query molecule ----
Q. Return TGI for the following molecule: Cc1sc2ccccc2[n+]1CCC(=O)O
A. > 100 µM

###

Tested on: HOP-92 NSCLC
test-details: NCI tumour cell line growth inhibition, 48 h; in the data active means GI50 below about 0.43 µM; inactive means the rest
Form entry, call: pick from active, inactive

Observe how each entry below is paired with its result.
compound	class
NC(=O)c1ccc(C2C3=C(CCCC3=O)OC3=C2C(=O)c2ccccc2C3=O)cc1 (stereo not given)	inactive
Oc1ccccc1-c1nc2c3ccccc3c3ccccc3c2[nH]1	inactive
CC(C)[C@H]1C(=O)N[C@@H](CCCN=C(N)N)C(=O)NCC(=O)N[C@@H](CC(=O)O)C(=O)N[C@H](Cc2ccccc2)C(=O)N1C	active
COc1ccc(Cl)cc1Nc1nc(C(F)(F)F)ccc1C(=O)N/N=C/c1cc(OC)c(OC)c(OC)c1	inactive
N.N.N.N.N.N.O=N[O-].[Br-].[Co+3].[Co+3].[OH3+].[OH3+]	inactive
Cc1cc(N/N=C/c2nc(-c3ccc(Cl)cc3)oc2C)c2cc(Cl)ccc2n1	inactive
COC(=O)CCCCCN=Cc1c(O)c(O)c(C(C)C)c2cc(C)c(-c3c(C)cc4c(C(C)C)c(O)c(O)c(C=NCCCCCC(=O)OC)c4c3O)c(O)c12	inactive
COc1ccc(CN2c3ccccc3CCc3ccccc32)cc1F	inactive

Q. What outcome does the record of this test show for CC(=O)Nc1ccc(S(=O)(=O)NNC(=O)c2cccnc2Nc2ccc(Cl)cc2)cc1 ?
A. inactive

Q. What outcome does the record of this test show for Cc1c2ccc(N(C)c3ccnc(Nc4cccc(S(N)(=O)=O)c4)n3)cc2nn1C ?
A. inactive

###

Tested on: NCI-H23 lung
test-details: NCI tumour cell line growth inhibition, 48 h
Here, each record is paired with measured TGI data.
Field format: number, assumed µM, no unit text.

molecule	unit-string	TGI
Cc1ccc(NC(=O)Cn2c(Br)nc3c2c(=O)n(C)c(=O)n3C)cc1	µM	22
N#CC(NNC(=O)c1ccccc1O)c1cccc(O)c1 (stereo not given)	µM	21.3
C=C1C(=O)OC2/C=C(\C=O)CC/C=C(\C)C(O)C[C@@H]12 (stereo not given in full)	µM	17.7

Q. Please respond with reported TGI (system NCI-H23 lung) for CSc1c(C#N)c2n(c3ccccc13)c1ccccc1[n+]2C .
A. 70.7

###

Tested on: UACC-62 melanoma
test-details: NCI tumour cell line growth inhibition, 48 h; in the data active = GI50 below about 0.43 µM; inactive = the rest
Form entry, call: pick from active, inactive

Observe how each entry below is paired with its result.
compound	target-or-system	class
Cc1ccc(NC(=O)Cn2c(Br)nc3c2c(=O)n(C)c(=O)n3C)cc1	UACC-62 melanoma	inactive
Cc1cc(-c2nnc3n2CCCCC3)c(C)n1-c1ccc(Cl)c(Cl)c1	UACC-62 melanoma	inactive
COc1ccc(C2CC(n3nnnc3-c3ccccc3)=NN2)cc1 (centres undefined)	UACC-62 melanoma	inactive
Cn1cc(CNCC2CCN(c3ncc(C(=O)NO)cn3)CC2)c2ccccc21	UACC-62 melanoma	active
CC(C)(C)NC(=O)[C@H]1C[C@H]2CCCC[C@H]2CN1C[C@@H](O)[C@H](Cc1ccccc1)NC(=O)[C@H](CC(N)=O)NC(=O)c1ccc2ccccc2n1	UACC-62 melanoma	inactive
C[C-](O)O.O/C(=C\[C-](O)c1ccccc1)c1ccccc1.O/C(=C\[C-](O)c1ccccc1)c1ccccc1.[Nd+3] (centres undefined)	UACC-62 melanoma	inactive

Q. What outcome does the record of this test show for COc1ccc(C(=O)N2c3ccccc3Sc3ccccc32)c(C(F)(F)F)c1 ?
A. inactive

Q. What outcome does the record of this test show for NC(=O)c1ccc(C2C3=C(CCCC3=O)OC3=C2C(=O)c2ccccc2C3=O)cc1 (centres undefined) ?
A. active

Q. What outcome does the record of this test show for O=[N+]([O-])c1ccc2c(c1)[O][Sn]([I])([I])[O]2 ?
A. inactive

Q. What outcome does the record of this test show for CC[C@@]1(O)C(=O)OCc2c1cc1n(c2=O)Cc2cc3cc(N)ccc3nc2-1 ?
A. active

Q. What outcome does the record of this test show for O=C1CCCN1CC#CCN1CCCC1 ?
A. inactive

Q. What outcome does the record of this test show for CCOc1c(Cl)cc(CNC(C)C(O)c2ccccc2)cc1OC (centres undefined) ?
A. inactive

Q. What outcome does the record of this test show for CCC(c1cccc(O)c1)C(CC)c1cccc(O)c1 (centres undefined) ?
A. inactive

Q. What outcome does the record of this test show for O=[N+]([O-])c1ccc2c(c1)[O][Sn][O]2 ?
A. inactive
